Study target: Yes (Homo sapiens)
Sequence (P07947 whole entry): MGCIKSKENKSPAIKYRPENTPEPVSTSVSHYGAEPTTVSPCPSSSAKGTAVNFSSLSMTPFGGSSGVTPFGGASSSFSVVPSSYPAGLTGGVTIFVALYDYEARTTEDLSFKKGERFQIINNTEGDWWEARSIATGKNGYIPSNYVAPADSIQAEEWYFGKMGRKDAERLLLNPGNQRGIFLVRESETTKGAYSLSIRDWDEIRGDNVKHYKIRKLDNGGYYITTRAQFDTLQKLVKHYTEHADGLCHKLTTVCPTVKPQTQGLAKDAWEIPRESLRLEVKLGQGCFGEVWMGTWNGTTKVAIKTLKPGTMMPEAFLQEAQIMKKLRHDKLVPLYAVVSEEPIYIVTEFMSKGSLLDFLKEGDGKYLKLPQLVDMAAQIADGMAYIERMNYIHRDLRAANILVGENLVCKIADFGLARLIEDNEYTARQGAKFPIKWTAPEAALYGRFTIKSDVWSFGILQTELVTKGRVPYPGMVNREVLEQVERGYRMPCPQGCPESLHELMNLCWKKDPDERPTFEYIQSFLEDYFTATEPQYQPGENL
Measure: pIC50
Lab note: report pIC50 as minus log10 of the concentration in molar units, number only.

[Q] Specify the recorded pIC50 for `CC(C)n1c(Nc2cccnc2)nc2cnc(Nc3ccc(N4CCN(C)CC4)cc3)nc21` , system: Yes (Homo sapiens).
[A] 8.40

----------
Experimental details: Solubility test (UV spectrophotometer, saturated solutions shaken 24 hours)
Type: physicochemical
Test parameters: 25° C., pH=1.2 hydrochloric acid solution
// reported Solubility, Water medium pH = 1.2 for each item listed
All answers are understood in mg/mL, so give the number only.

Worked examples follow.
[[record]]
compound = "CC(C)n1c(Nc2cccnc2)nc2cnc(Nc3ccc(N4CCN(C)CC4)cc3)nc21 [Example 14]"
measure = "Solubility, Water medium pH = 1.2"
recorded_measurement = 41.47

[[record]]
compound = "CC(C)n1c(Nc2cccnc2)nc2cnc(Nc3ccc(N4CCN(C)CC4)cc3)nc21 [Example 3]"
measure = "Solubility, Water medium pH = 1.2"
recorded_measurement = 360.00

[[record]]
compound = "CC(C)n1c(Nc2cccnc2)nc2cnc(Nc3ccc(N4CCN(C)CC4)cc3)nc21 [The compound represented by Formula 1]"
measure = "Solubility, Water medium pH = 1.2"
recorded_measurement = 12.60

[[record]]
compound = "CC(C)n1c(Nc2cccnc2)nc2cnc(Nc3ccc(N4CCN(C)CC4)cc3)nc21 [Example 8]"
measure = "Solubility, Water medium pH = 1.2"
recorded_measurement = 36.41

[[record]]
compound = "CC(C)n1c(Nc2cccnc2)nc2cnc(Nc3ccc(N4CCN(C)CC4)cc3)nc21 [Example 7]"
measure = "Solubility, Water medium pH = 1.2"
recorded_measurement = 43.07

[[record]]
compound = "CC(C)n1c(Nc2cccnc2)nc2cnc(Nc3ccc(N4CCN(C)CC4)cc3)nc21 [Example 13]"
measure = "Solubility, Water medium pH = 1.2"
recorded_measurement = 59.71

[[record]]
compound = "CC(C)n1c(Nc2cccnc2)nc2cnc(Nc3ccc(N4CCN(C)CC4)cc3)nc21 [Example 16]"
measure = "Solubility, Water medium pH = 1.2"
recorded_measurement = 129.50

[[record]]
compound = "CC(C)n1c(Nc2cccnc2)nc2cnc(Nc3ccc(N4CCN(C)CC4)cc3)nc21 [Example 17]"
measure = "Solubility, Water medium pH = 1.2"
recorded_measurement = 33.29


[Q] Supply recorded Solubility, Water medium pH = 1.2 for CC(C)n1c(Nc2cccnc2)nc2cnc(Nc3ccc(N4CCN(C)CC4)cc3)nc21 [Example 12] here.
[A] 42.39

[Q] Supply reported Solubility, Water medium pH = 1.2 belonging to this compound: CC(C)n1c(Nc2cccnc2)nc2cnc(Nc3ccc(N4CCN(C)CC4)cc3)nc21 [Example 15]
[A] 96.58
